For each record, write down the corresponding SPOT peptide array binding signal intensity.
Molecular target: AgSla1-D3
Assay: SPOT peptide array binding signal intensity (averaged, normalized) (arbitrary units (background-subtracted, floor 0; scale differs between SH3 domains)); higher = stronger binding of the SH3 domain to the peptide
Just the number, please.

Q: # SPOT peptide array binding signal intensity lookup, item `QLLNPNRRAPRRPLS`
Result: 4

Q: # SPOT peptide array binding signal intensity lookup, item `NLPKRKPPKLQGPFS`
Result: 2

Q: # SPOT peptide array binding signal intensity lookup, item `NAGIRPKFILALNDE`
Result: 4

Q: # SPOT peptide array binding signal intensity lookup, item `PKMLPIPSKPTLFDL`
Result: 5.5
